Known hERG current change (%, negative = inhibition) at 10uM of a selection of compounds
target: human ether-à-go-go-related gene (hERG) potassium channel (human); experiment: primary screen, population patch clamp on CHO cells stably expressing hERG; higher = less effect of the substance;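 also: peak tail current of the secondary pulse compared with the same well before compound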
Among all 310,000 compounds or so, about 14,000 (4.5%) showed an effect of 50% or more. Effects have a minus sign here. This is one part of a sample in which strong results are shown more often than they occur.
measurement name: hERG current change (%, negative = inhibition) at 10uM (%)

{"structure smiles": "CC(=O)c1ccccc1OCc1ccc(S(=O)(=O)Cc2ccccc2)cc1", "quantitative readout": -26.6}
{"structure smiles": "COc1ccc(S(=O)(=O)N2CCN(C3CCN(Cc4ccccc4)CC3)CC2)cc1", "quantitative readout": -59.4}
{"structure smiles": "Cc1csc(=O)n1CC(=O)OCC(=O)c1ccc(Br)cc1", "quantitative readout": -14}
{"structure smiles": "O=C(O)Cn1ccnc1", "quantitative readout": 4.81}
{"structure smiles": "CC(C)Sc1nc(N2CCOCC2)c2c(c1C#N)CC(C)(C)SC2", "quantitative readout": 5.69}
{"structure smiles": "Cc1nn(-c2nc3ccccc3[nH]2)c(N)c1-c1ccccc1", "quantitative readout": 0.295}

---

Molecular target: human ether-à-go-go-related gene (hERG) potassium channel (human, UniProt Q12809);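 also: peak tail current of the secondary pulse compared with the same well before compound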
Sequence (Q12809 whole entry, looked up): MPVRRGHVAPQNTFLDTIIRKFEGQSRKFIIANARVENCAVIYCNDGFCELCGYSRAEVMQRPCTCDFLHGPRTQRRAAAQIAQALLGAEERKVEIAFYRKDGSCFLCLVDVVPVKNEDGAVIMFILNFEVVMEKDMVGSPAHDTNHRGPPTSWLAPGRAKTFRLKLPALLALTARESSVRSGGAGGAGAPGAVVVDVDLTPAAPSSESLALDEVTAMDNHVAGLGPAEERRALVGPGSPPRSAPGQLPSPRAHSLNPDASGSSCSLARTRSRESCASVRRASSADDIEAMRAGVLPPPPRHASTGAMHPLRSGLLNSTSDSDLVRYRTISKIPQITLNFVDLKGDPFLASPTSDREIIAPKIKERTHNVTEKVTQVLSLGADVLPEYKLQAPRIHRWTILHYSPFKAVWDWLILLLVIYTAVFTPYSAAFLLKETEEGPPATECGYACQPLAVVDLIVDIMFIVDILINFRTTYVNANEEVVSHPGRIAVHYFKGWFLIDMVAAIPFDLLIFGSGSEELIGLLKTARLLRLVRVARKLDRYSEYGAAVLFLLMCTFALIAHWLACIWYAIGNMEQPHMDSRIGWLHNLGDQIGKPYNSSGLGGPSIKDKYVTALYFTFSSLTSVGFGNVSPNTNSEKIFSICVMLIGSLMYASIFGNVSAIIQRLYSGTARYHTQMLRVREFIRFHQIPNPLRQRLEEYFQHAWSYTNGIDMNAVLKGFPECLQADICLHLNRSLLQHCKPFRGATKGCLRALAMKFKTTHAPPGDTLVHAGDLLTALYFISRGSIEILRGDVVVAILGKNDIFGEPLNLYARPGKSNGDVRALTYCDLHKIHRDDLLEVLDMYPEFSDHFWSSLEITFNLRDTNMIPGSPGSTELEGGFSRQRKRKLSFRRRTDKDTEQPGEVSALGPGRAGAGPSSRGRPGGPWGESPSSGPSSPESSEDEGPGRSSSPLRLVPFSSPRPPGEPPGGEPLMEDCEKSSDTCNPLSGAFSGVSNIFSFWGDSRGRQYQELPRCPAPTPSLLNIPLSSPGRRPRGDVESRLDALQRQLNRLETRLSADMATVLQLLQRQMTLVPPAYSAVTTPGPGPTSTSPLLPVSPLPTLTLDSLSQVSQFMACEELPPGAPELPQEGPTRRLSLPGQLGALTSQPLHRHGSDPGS
Assay: primary screen, population patch clamp on CHO cells stably expressing hERG; higher = less effect of the substance
Experimental: Briefly, Chinese hamster ovary (CHO) cells stably expressing the hERG channel were dislodged from tissue culture flasks and dispensed into PPC plates. […] During the recording, background leak currents were estimated by a 100 ms step to -80 mV from an initial holding potential of -70 mV and subtracted from the subsequent current measurement. The campaign was conducted in two phases using slight differences in recording protocol. […]
About 14,000 (4.5%) of roughly 310,000 compounds showed an effect of 50% or more. The effect is printed as a negative number. Shown is part of a subset that was picked to be rich in strong results.
Known hERG current change (%, negative = inhibition) at 10uM of a selection of compounds
measurement name: hERG current change (%, negative = inhibition) at 10uM (%)

{"compound": "Cc1ccnc(NC(=O)CCCc2ccccc2)c1", "quantitative readout": 13}
{"compound": "Cc1ccc(NC(=S)N(CCN2CCCCC2)Cc2ccco2)cc1Cl", "quantitative readout": -51.1}
{"compound": "Cc1ccc(-n2ncc3c2CC(C)(C)CC3NC(=O)CCc2ccc(=O)[nH]n2)cc1 (centres unmarked)", "quantitative readout": -11.2}
{"compound": "COc1ccc2c(=O)c3c(=O)n(Cc4ccco4)c(-c4ccccc4)nc3oc2c1", "quantitative readout": -32.2}
{"compound": "Cc1ccc(-n2ncc3c2CC(C)(C)CC3NC(=O)CCc2ccncc2)cc1 (centres unmarked)", "quantitative readout": -72.2}
{"compound": "CC1(C)Cc2c(cnn2-c2ccccc2)C(NC(=O)CCc2ccncc2)C1 (centres unmarked)", "quantitative readout": -68.8}
{"compound": "O=C(COc1ccccc1Cl)N1CCCC1", "quantitative readout": 5.64}
{"compound": "O=C(O)c1ccc(N2C(=O)c3cccc(Oc4ccc(Cl)cc4)c3C2=O)cc1", "quantitative readout": -80.7}
{"compound": "COC(=O)CCCC(=O)NC1CC(C)(C)Cc2c1cnn2-c1ccc(C)cc1 (centres unmarked)", "quantitative readout": -24.7}
{"compound": "Cc1cc(C)cc(NC(=S)N(CCN2CCCCC2)Cc2ccco2)c1", "quantitative readout": -74.4}
{"compound": "CCCCN1C(=O)C(=O)N(CC(=O)N2CCN(c3ccccc3)CC2)C1=O", "quantitative readout": 3.67}
{"compound": "COc1ccc2c(=O)c3c(=O)n(Cc4ccco4)c(-c4ccc(C)cc4)nc3oc2c1", "quantitative readout": -53.3}
{"compound": "COc1ccc(-n2ncc3c2CC(C)(C)CC3NC(=O)CCC2=NNC(=O)CC2)cc1 (centres unmarked)", "quantitative readout": 15.8}
{"compound": "C=CCC(=O)NC1CC(C)(C)Cc2c1cnn2-c1ccc(C)cc1 (centres unmarked)", "quantitative readout": -69.7}
{"compound": "O=C(NNC(=S)NCc1ccccc1)c1ccc2c(c1)OCO2", "quantitative readout": 8.77}
{"compound": "COc1ccc2c(=O)c3c(=O)n(Cc4ccco4)c(-c4cc(OC)c(OC)c(OC)c4)nc3oc2c1", "quantitative readout": -16}
{"compound": "Cc1nn(C)c(C)c1CCC(=O)NC1CC(C)(C)Cc2c1cnn2-c1ccccc1 (centres unmarked)", "quantitative readout": -28.1}
{"compound": "N#CCC(=O)N/N=C\\c1ccc(OC/C=C/c2ccccc2)cc1", "quantitative readout": 14.4}
{"compound": "Cc1cccc(N2C(=O)c3cccc(Oc4ccc(Cl)cc4)c3C2=O)c1", "quantitative readout": 4.76}
{"compound": "COC(=O)CCC(=O)NC1CC(C)(C)Cc2c1cnn2-c1ccccc1 (centres unmarked)", "quantitative readout": -12}
